# Protocol Description: yeast display, Sf9 membrane polyspecificity reagent, FACS + sequencing; frameworks hold sequencing errors
Readout: polyreactivity (PSR sort gate)

Sequence Code	Readout	Endpoint Result
QVQLVESGRGLVQAGGSLRLSCAASGITFTAYAMGWYRQAPGLERQLVATINSTGITNYADSLKGRFTISRDNAKNTVYLQMNSLKPEDTAVYYCAADLLYISSYDGMDYWGQGTQVTVSS	polyreactivity (PSR sort gate)	low polyreactivity
QVQLVESGGGLVQAGGSLRLSCAASGIIFSPYARGWYRQAPGKERELVAAISYSGGSTYYADSVKGRFTISRDNAKNTVYLQMNSLKPEDTAVYYCAVVYSYYLAVLGYWDYDYWGQGTQVTVSS	polyreactivity (PSR sort gate)	low polyreactivity
QVQLVESGGGLVQAGGSLRLSCAASGITFQYYAMGWYRQAPGKERELVASISYRGGRTYYADSVKGRFTISRDNAKNTVYLQMNSLKQEDTSVYYCAADWRYTTFWTLRYYGFDYWGQGTQVTVSS	polyreactivity (PSR sort gate)	high polyreactivity
QVQLVESGGGLVQAGGSLRLSCAASGIIFSVYAMGWYRQAPGKERELVAAITRSGSRTYYADSVKGRFTISRDNAKNTVYLQMNSLKPEDTAVYYCNAVPRVTRPSAVEEYDYWGQGTQVTVSS	polyreactivity (PSR sort gate)	high polyreactivity
QVQLVESGGGLVQAGGSLRLSCAASGITFPYNAMGWYRQAPGKERELVADISSSGGITYYADSVKGRFTISRDNAKNTVYLQMNSLKPEDTAVYYCAVRKYGYGFEMDYWGQGTQVTVSS	polyreactivity (PSR sort gate)	low polyreactivity
